target_or_system: RSV prefusion F (preF, DS-Cav1) (Respiratory syncytial virus)
test_name: BLI, IgG on sensor, 100 nM antigen
Please respond with reported Kd for every item in the list.
Give bare numbers, in nM.

Reference set (3 entries):
State the recorded Kd for this entry: ADI-41316 (antibody, V domains shown) VH: QVQLVQSGGGVVQPGRSLRLSCAASGFTFNNYGMHWVRQAPGKGLEWVAVLSFDGINKYYADSARGRFTISRDNSKNTLYLQMNSLRAEDTALYYCAKDRQEYSSGWTHDACDIWGQGTMVTVSS VL: EIVMTQSPATLSVSPGERATLSCRASQNVNNNLAWYQQNPGQAPRLLIFGASTRATGIPARFSGSGSGTEFTLTISSLQSEDFAVYYCQQYNNWPRTFGQGTKLEIK
3.74

Ok, now ADI-41257 (antibody, V domains shown) VH: QVQLVESGAEVKKPGSSVKVSCKASEGTFSSYGISWVRQAPGQGPEWMGEINPMFGTAKYAQKFQGRVTITVDESTSTADMELSSLTSEDTAVYYCAREFLGQCSETNCPTPSRHLDYWGQGTLVTVSS VL: EIVMTQSPSSLSASVGDRVTITCRASRTISSYLNWYQQKPGKAPKLLIYATSNLQSGVPSRFSGSGSGADFTLTISSLQPEDFATYYCQQTYSTPGFGPGTKVDIK
3.81

Ok, now ADI-41266 (antibody, V domains shown) VH: QVQLQQSGPGLVKPSQTLSLTCAISGDSVSSNSAAWNWIRQSPSRGLEWLGRTYYRSKWYNDYAVSVKSRITINPDTSKNQFSLQLNSVTPEDTAVYYCARDLPQVDYFDGASFYFFDFWGQGTLVTVSS VL: QPVLTQPPSVSVAPGQTASITCGGNIIGNKGVHWYQQKPGRAPVLVVYDDSDRPSGIPERFSGSNSGNTATLTISRVEAADEADYYCQVWDTGSHPVVFGGGTKVTVL
4.06

Batch of 5 binders: report Kd for each.
1. ADI-41287 (antibody, V domains shown) VH: EVQLVESGGGLVQPGRSLRLSCAASGFTFDDYAMHWVRQAPGKGLEWVSSISWHSADIGYAASVEGRFTISRDNAKNSLFLQMNSLRPEDTALYYCAKEIVSTSWYSGYFQDWGQGTLVTVSS VL: QPVLTQPRSVSGSPGQSVTISCTGTSSDVGDYNYVSWYQQHPGKAPKLMIYDVSKRPSGVPDRFSGSKSGNTASLTISGLQGEDEADYYCCSYAGRHTFVFGTATKVTVL
2. ADI-41304 (antibody, V domains shown) VH: EVQLVESGPGLVKPSQTLSLTCTVSGGSIRSHDYYWSWIRQPPGKGLEWIGYSYYSGSTYYNPSLKSRVIISLDTSKNQFSLNLTSVTAADTAMYYCARDRPHTSSWIPGWFDPWGQGTLVTVSS VL: SYELTQPPSASGTPGQRVTISCSGSSSNIGSNTVSWYQQFPGKAPKLLIYSNNERPSGGPDRFSGSKSGTSASLAIGGLQSEDEANYYCAAWDDSLYAVVFGGGTKLTVL
3. ADI-41323 (antibody, V domains shown) VH: EVQLLESGGGVVRPGGSLRLSCAASGFTFDDYAMGWVRQAPGKGLEWVSGITWNAGSTAYAGSVKGRFTISRDNAKNSLFLQMNSLRAEDTAFYLCARHVDSSGPVARHFDYWGQGTLVTVSS VL: NFMLTQPHSVSESPGKTVTISCTRSSGSIARNYVQWYQQRPGSAPTIVIYEDNQRPSGVPDRFSGSIDSSSNSASLTISGLKTEDEADYYCQSYDPSNVVFGGGTKLTVL
4. ADI-41303 (antibody, V domains shown) VH: QVQLVQSGGGLVRPGGSLRVSCAASGFIFNNYALTWVRQAPGKGLEWVSAISGSGSSTYYADSVKGRFTISRENSNNRLYLQLSGLRAEDTAVYFCARVRGLVWFEGRIDPYPNVFDYWGQGTLVTVSS VL: DIVLTQSPGTLSLSPGERATLSCRASQSVSNDYLAWYQQKPGQAPRLLIYDASSRAIGIPDRFSGSGSGTDFTLIISRLEPEDFAVYYCHHPGKFGQGTKVEIK
5. ADI-41246 (antibody, V domains shown) VH: EVQLLESGPGLVKPSETLSLTCIVSGGSISSYNWNWIRQPPGKGLEWIGYIYNSGSTNYNPSLKSRVTISVDTSKNQFSLKLSSVTAADTAVYYCARYFDYGSGGFDYWGQGTLVTVSS VL: ETTLTQSPGTLSLSPGERATLSCRASQSVTSTYLAWYQQKPGQAPRLLIYGASSRATGIPDRFSGSGSGTDFTLTISRLEPEDFAVYYCQQFDSSLTFGGGTKVEIK

3.22
0.338
1.95
2.96
3.08

Batch of 2 binders: report Kd for each.
1. ADI-41251 (antibody, V domains shown) VH: EVQLVESGGGLVKPGGSLRLSCAASGFTFSDYYMTWIRQAPGKGLEWVSNISGGSSYTNYADSVKGRFTISRDNAKNSVYLQMNSLRAEDTAVYYCARVGCSGGVCNFFLDYWGQGTLVTVSS VL: QSVLTQPPSVSGAPGQRVTISCTGSSSNIGAGYDVHWYQQLPGTAPKLLIYDNTNRPSGVPDRFSGSKSGTSASLAITGLQAEDEADYYCQSYDSSLSGYVFGTGTKVTVL
2. ADI-41280 (antibody, V domains shown) VH: QVQLVESGPGLVKPSETLALTCTVSGGSLSTYYWSWIRQPPGKGLEWIGYIYYSGTTYYNPSLKSRVTISEDRSKNQFSLKLTSVTAADTAVYYCARHGPKTEFWSAQYYLELWGRGTLVTVSS VL: EIVLTQSPGTLSLSPGERATLSCRASQSVSSDYLAWYQQKPGQAPSLLIYGVSTRATGIPDRISGSGSGTDFTLTISRLEPEDFAVYYCHQYGTSPWTFGQGTKVEIK

0.593
3.62
